Test Description: Activity at P-gp in hCMEC/D3 cells at 0.1 to 50 uM after 15 mins by calcein-AM assay
Format: ADME, cell-based
Test Parameters: human, cmec/d3, 0.25 h

# Molecule, Activity
measured = [
    ("C=CCN1CCC[C@H]1CNC(=O)c1cc(CCCSC2CC(=O)N(CCCCCC(=O)NCCOCCOCCOCCOCCC(=O)N[C@@H](Cc3cnc[nH]3)C(=O)N[C@@H](C)C(=O)N[C@H](C(=O)N[C@@H](Cc3ccc(O)cc3)C(=O)N3CCC[C@H]3C(=O)N[C@@H](CCCNC(=N)N)C(=O)N[C@@H](Cc3cnc[nH]3)C(=O)O)[C@@H](C)CC)C2=O)cc(OC)c1OC (stereo partly drawn)", "Not Active"),
    ("C=CCN1CCC[C@H]1CNC(=O)c1cc(CCCSC2CC(=O)N(CCCCCC(=O)NCCOCCOCCOCCOCCC(=O)N[C@@H](CCCCNC(=O)CN3CCN(CC(=O)O)CCN(CC(=O)O)CCN(CC(=O)O)CC3)C(=O)N[C@@H](Cc3cnc[nH]3)C(=O)N[C@@H](C)C(=O)N[C@H](C(=O)N[C@@H](Cc3ccc(O)cc3)C(=O)N3CCC[C@H]3C(=O)N[C@@H](CCCNC(=N)N)C(=O)N[C@@H](Cc3cnc[nH]3)C(=O)O)[C@@H](C)CC)C2=O)cc(OC)c1OC (stereo partly drawn)", "Not Active"),
    ("C=CCN1CCC[C@H]1CNC(=O)c1cc(CCCSC2CC(=O)N(CCCCCC(=O)NCCOCCOCCOCCOCCC(=O)N[C@@H](CCCCNC(=O)O/N=C/c3ccc([Si](F)(C(C)(C)C)C(C)(C)C)cc3)C(=O)N[C@@H](Cc3cnc[nH]3)C(=O)N[C@@H](C)C(=O)N[C@H](C(=O)N[C@@H](Cc3ccc(O)cc3)C(=O)N3CCC[C@H]3C(=O)N[C@@H](CCCNC(=N)N)C(=O)N[C@@H](Cc3cnc[nH]3)C(=O)O)[C@@H](C)CC)C2=O)cc(OC)c1OC (stereo partly drawn)", "Not Active"),
]

----------
Target Or System: D(2) dopamine receptor (Homo sapiens, UniProt P14416)
Sequence (P14416 whole entry): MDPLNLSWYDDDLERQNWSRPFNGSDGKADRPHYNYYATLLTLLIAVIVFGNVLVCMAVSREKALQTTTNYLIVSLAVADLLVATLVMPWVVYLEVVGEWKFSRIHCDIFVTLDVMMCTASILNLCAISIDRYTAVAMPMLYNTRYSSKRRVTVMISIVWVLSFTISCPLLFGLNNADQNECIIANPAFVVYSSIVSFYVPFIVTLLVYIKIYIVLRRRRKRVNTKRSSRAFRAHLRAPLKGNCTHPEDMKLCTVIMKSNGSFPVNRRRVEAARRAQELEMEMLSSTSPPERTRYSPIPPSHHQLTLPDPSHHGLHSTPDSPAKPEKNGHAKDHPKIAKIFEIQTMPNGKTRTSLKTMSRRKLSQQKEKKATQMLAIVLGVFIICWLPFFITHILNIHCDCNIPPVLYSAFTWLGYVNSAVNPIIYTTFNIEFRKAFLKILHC
Test Description: Displacement of [3H]spiperone from human D2 receptor transfected in HEK cells
pKi: −log10 of the molar value. Peptide text beside a SMILES is read from it. * marks the point of attachment. X1 = C=CCN1CCC[C@H]1CNC(=O)c1cc(CCCSC2CC(=O)N(CCCCCC(=O)*)C2=O)cc(OC)c1OC
Reported Endpoint: pKi

# Compound, Target Or System, Measured Result
data = [
    ("C=CCN1CCC[C@H]1CNC(=O)c1cc(CCCSC2CC(=O)N(CCCCCC(=O)NCCOCCOCCOCCOCCOCCOCCC(=O)N[C@@H](Cc3cnc[nH]3)C(=O)N[C@@H](C)C(=O)N[C@H](C(=O)N[C@@H](Cc3ccc(O)cc3)C(=O)N3CCC[C@H]3C(=O)N[C@@H](CCCNC(=N)N)C(=O)N[C@@H](Cc3cnc[nH]3)C(=O)O)[C@@H](C)CC)C2=O)cc(OC)c1OC (stereo partly drawn)", "D(2) dopamine receptor (Homo sapiens, UniProt P14416)", 7.56),
    ("C=CCN1CCC[C@H]1CNC(=O)c1cc(CCCSC2CC(=O)N(CCCCCC(=O)N[C@H](C(=O)N[C@@H](Cc3cnc[nH]3)C(=O)N[C@@H](CCCNC(=N)N)C(=O)N3CCC[C@H]3C(=O)N3CCC[C@H]3C(=O)N[C@@H](CCSC)C(=O)N[C@@H](Cc3c[nH]c4ccccc34)C(=O)N[C@@H](CO)C(=O)N3CCC[C@H]3C(=O)N[C@H](C(=O)N[C@@H](Cc3c[nH]c4ccccc34)C(=O)N3CCC[C@H]3C(=O)O)C(C)C)[C@@H](C)O)C2=O)cc(OC)c1OC (stereo partly drawn) (X1-THRPPMWSPVWP-OH)", "D(2) dopamine receptor (Homo sapiens, UniProt P14416)", 7.56),
    ("C=CCN1CCC[C@H]1CNC(=O)c1cc(CCCSC2CC(=O)N(CCCCCC(=O)N[C@@H](CCCNC(=N)N)C(=O)N[C@@H](CCCCN)C(=O)N[C@@H](CCCCN)C(=O)N[C@@H](CCCNC(=N)N)C(=O)N[C@@H](CCCNC(=N)N)C(=O)N[C@@H](CCC(N)=O)C(=O)N[C@@H](CCCNC(=N)N)C(=O)N[C@@H](CCCNC(=N)N)C(=O)N[C@@H](CCCNC(=N)N)C(=O)O)C2=O)cc(OC)c1OC (stereo partly drawn)", "D(2) dopamine receptor (Homo sapiens, UniProt P14416)", 8.01),
]

----------
Target Or System: D(2) dopamine receptor (Homo sapiens)
Test Description: Displacement of [3H]spiperone from human D2 receptor transfected in HEK cells
Type: cell-based, HEK293
Peptide text beside a SMILES is read from it. * marks the point of attachment. X1 = C=CCN1CCC[C@H]1CNC(=O)c1cc(CCCSC2CC(=O)N(CCCCCC(=O)*)C2=O)cc(OC)c1OC
Reported Endpoint: Ki (nM)

# Compound, Comparator, Measured Result
records = [
    ("CC[C@H](C)[C@H](NC(=O)[C@H](C)NC(=O)[C@@H](N)Cc1cnc[nH]1)C(=O)N[C@@H](Cc1ccc(O)cc1)C(=O)N1CCC[C@H]1C(=O)N[C@@H](CCCNC(=N)N)C(=O)N[C@@H](Cc1cnc[nH]1)C(=O)O", ">", 1000),
    ("C=CCN1CCC[C@H]1CNC(=O)c1cc(CCCSC2CC(=O)N(CCCCCC(=O)N[C@H](C(=O)N[C@@H](CCC(N)=O)C(=O)N[C@@H](CCCNC(=N)N)C(=O)N[C@@H](CCCCN)C(=O)N[C@@H](CCCNC(=N)N)C(=O)N[C@@H](CCC(N)=O)C(=O)N[C@@H](CCCCN)C(=O)N[C@@H](CC(C)C)C(=O)N[C@@H](CCSC)C(=O)N3CCC[C@H]3C(=O)O)C(C)C)C2=O)cc(OC)c1OC (stereo partly drawn) (X1-VQRKRQKLMP-OH)", "=", 13),
    ("C=CCN1CCC[C@H]1CNC(=O)c1cc(CCCSC2CC(=O)N(CCCCCC(=O)NCCOCCOCCOCCOCCC(=O)N[C@@H](Cc3cnc[nH]3)C(=O)N[C@@H](C)C(=O)N[C@H](C(=O)N[C@@H](Cc3ccc(O)cc3)C(=O)N3CCC[C@H]3C(=O)N[C@@H](CCCNC(=N)N)C(=O)N[C@@H](Cc3cnc[nH]3)C(=O)O)[C@@H](C)CC)C2=O)cc(OC)c1OC (stereo partly drawn)", "=", 1.47),
]
